Source: PubChem BioAssay

# test.target: Albumin (Bos taurus) (UniProt P02769)
# Sequence (P02769 whole entry, looked up): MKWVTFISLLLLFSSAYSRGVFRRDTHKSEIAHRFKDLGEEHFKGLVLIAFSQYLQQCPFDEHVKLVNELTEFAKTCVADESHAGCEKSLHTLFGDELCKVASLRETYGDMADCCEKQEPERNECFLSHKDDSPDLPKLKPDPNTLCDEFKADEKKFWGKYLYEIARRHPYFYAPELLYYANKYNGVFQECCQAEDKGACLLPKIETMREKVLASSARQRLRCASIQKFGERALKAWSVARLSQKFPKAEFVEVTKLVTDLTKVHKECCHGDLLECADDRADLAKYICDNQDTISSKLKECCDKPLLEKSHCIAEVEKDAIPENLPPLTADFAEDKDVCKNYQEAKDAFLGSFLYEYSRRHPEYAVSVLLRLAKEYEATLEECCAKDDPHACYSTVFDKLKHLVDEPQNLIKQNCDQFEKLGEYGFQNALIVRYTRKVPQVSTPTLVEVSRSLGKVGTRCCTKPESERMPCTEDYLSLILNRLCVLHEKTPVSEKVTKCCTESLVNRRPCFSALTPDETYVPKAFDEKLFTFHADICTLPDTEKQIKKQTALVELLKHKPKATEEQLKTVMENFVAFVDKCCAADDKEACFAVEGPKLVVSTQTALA
# protocol.details: bovine serum albumin binders on microarray, profiling panel, artefact control for SMM control protein annotation, biochemical, small-molecule microarray, Alexa647 label, 635/667 nm fluorescence (AID 1118);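 also: score merges 667 nm emission intensity and signal-to-noise per printed compound spot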
# protocol.conditions: BSA-A647 binding, fluorescence 635 nm, higher = more signal
// reported composite z-score for each item listed

# annotated cases, reported composite z-score shown
compound: O=C1OCC=C[C@H]2OC34C=CCN(c5ccc(Cl)cc5)C(=O)[C@H]3N(CCCCCO)C(=O)[C@@H]4[C@@H]12 (some centres undefined)
composite z-score: 0.387
--
compound: COCC(=C=CC[C@H](O)c1cccc(OCCO)c1)C[C@H](O)c1ccccn1
composite z-score: 0.0722
--
compound: [N-]=[N+]=NCc1ccccc1C[C@@]1(C(=O)N2CCCCC2)N=C(c2ccc(OCCCO)cc2)O[C@@H]1c1ccccc1N=[N+]=[N-]
composite z-score: 0.79

We now examine a further compound.
Q: Let me know recorded composite z-score for COC(=O)[C@@]1(Cc2ccc(OC)cc2)[C@H]2c3cc(C(=O)N4CCCC4)n(CCc4cc5ccccc5[nH]4)c3C[C@H]2CN1C(=O)c1ccccc1 , thanks.
Ans: 1.01

* * *

# test.target: Torsin-1A (Homo sapiens)
# protocol.details: small-molecule binders of mutant TOR1A in lysate, primary screen, cell lysate, small-molecule microarray, COS7 lysate, 635/667 nm fluorescence (AID 1150);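 also: score pools 667 nm emission and signal to noise measuring lysate protein binding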
# protocol.conditions: COS7 hTOR1A mutant lysate, 635 nm fluorescence, higher = more signal
Lab note: anything with composite z-score at or over 0.2 counts as True; the rest go in False.

Q: State whether the measured composite z-score reaches 0.2, counting equality as reaching it, for CC(=O)n1cc(C(O)C2C=CC3C(=O)N(c4ccccc4)C(=O)C3N2Nc2ccccc2)c2ccccc21 (centres undefined)
Ans: True

Q: State whether the measured composite z-score reaches 0.2, counting equality as reaching it, for CN1C(=O)[C@@]2(CCS(=O)(=O)c3ccccc3)N=C(c3ccc(OCCCO)cc3)O[C@H]2c2ccccc21
Ans: True

Q: State whether the measured composite z-score reaches 0.2, counting equality as reaching it, for COC(=O)Cn1c(C(=O)N2CCCC2)cc2c1C[C@H]1CN(C(=O)c3ccccc3)[C@@](Cc3ccc(F)cc3)(C(=O)OC)[C@@H]21
Ans: False

Q: State whether the measured composite z-score reaches 0.2, counting equality as reaching it, for NC(=O)NCC#Cc1ccc2c(c1)[C@]1(C(=O)N2)[C@H](C(=O)Nc2nc3ccccc3s2)[C@H]2C(=O)O[C@H](c3ccccc3)[C@H](c3ccccc3)N2[C@@H]1c1ccc(O)cc1
Ans: False

Q: State whether the measured composite z-score reaches 0.2, counting equality as reaching it, for CCOC(=O)C[C@H]1[C@H](OC(=O)c2ccc(-c3ccccc3)cc2)[C@@H](NC(=O)C2CCCCC2)c2cc(OCCCO)ccc2N1C(=O)c1ccccc1
Ans: True

Q: State whether the measured composite z-score reaches 0.2, counting equality as reaching it, for C=CCOC(=O)[C@@H]1[C@H]2C(=O)O[C@H](c3ccccc3)[C@H](c3ccccc3)N2[C@H](c2ccc(OCCOC(=O)[C@H]3C[C@H]4C(=O)N[C@@H](CCCCNC(C)=O)C(=O)N4[C@H]3c3cccc(OCCO)c3)cc2)[C@@]12C(=O)Nc1ccc(I)cc12
Ans: True

Q: State whether the measured composite z-score reaches 0.2, counting equality as reaching it, for C[C@]1(C(=O)NCCN2CCOCC2)c2ccccc2C(=O)N(Cc2ccc(OC(F)(F)F)cc2)[C@H]1c1ccc(CO)cc1
Ans: True

Q: State whether the measured composite z-score reaches 0.2, counting equality as reaching it, for CC[C@@H]1[C@H]2C3C(=O)N(CC)C(=O)C3CC(=O)[C@H]2[C@H](c2ccc(C)cc2)N1S(=O)(=O)c1ccc(C)cc1 (some centres undefined)
Ans: False

Q: State whether the measured composite z-score reaches 0.2, counting equality as reaching it, for C[N+](C)(C)CCCC[C@@H]1NC(=O)[C@@H]2C[C@H](C(=O)O)[C@H](c3ccc(O)cc3)N2C1=O
Ans: False

Q: State whether the measured composite z-score reaches 0.2, counting equality as reaching it, for C[C@]1(C(=O)NC2CC2)c2ccccc2C(=O)N(Cc2ccc(OC(F)(F)F)cc2)[C@H]1c1ccc(CO)cc1
Ans: True

Q: State whether the measured composite z-score reaches 0.2, counting equality as reaching it, for [N-]=[N+]=NCc1ccccc1C[C@@]1(C(=O)NCCN2CCOCC2)N=C(c2ccc(OCCCO)cc2)O[C@@H]1c1ccccc1N=[N+]=[N-]
Ans: True

Q: State whether the measured composite z-score reaches 0.2, counting equality as reaching it, for O=C1C[C@@](C(=O)NCC(F)(F)F)(c2ccc([N+](=O)[O-])cc2)[C@@H](c2ccc(CO)cc2)N1C1CCCCC1
Ans: True

Q: State whether the measured composite z-score reaches 0.2, counting equality as reaching it, for CC(C)NC(=O)[C@@]1(C)c2ccccc2C(=O)N(C(C)C)[C@H]1c1ccc(CO)cc1
Ans: False

Q: State whether the measured composite z-score reaches 0.2, counting equality as reaching it, for COCC(=C=CC[C@H](O)c1ccc(OCCO)cc1)C[C@H](O)COCc1ccccc1
Ans: True

Q: State whether the measured composite z-score reaches 0.2, counting equality as reaching it, for CCCCC(CC)C(O)C1C=CC2C(=O)N(c3ccccc3)C(=O)C2N1Nc1ccc([N+](=O)[O-])cc1 (centres undefined)
Ans: True

Q: State whether the measured composite z-score reaches 0.2, counting equality as reaching it, for COCCOC(=O)N1C(=O)[C@@]2(c3cc(C#CC4(O)CCCCCC4)ccc31)[C@H](C(N)=O)[C@H]1C(=O)O[C@H](c3ccccc3)[C@H](c3ccccc3)N1[C@@H]2c1ccc(O)cc1
Ans: False
